Provide the reported pKi of each item.
target-entity: 5-hydroxytryptamine receptor 2C (Homo sapiens, UniProt P28335)
Sequence (P28335 whole entry): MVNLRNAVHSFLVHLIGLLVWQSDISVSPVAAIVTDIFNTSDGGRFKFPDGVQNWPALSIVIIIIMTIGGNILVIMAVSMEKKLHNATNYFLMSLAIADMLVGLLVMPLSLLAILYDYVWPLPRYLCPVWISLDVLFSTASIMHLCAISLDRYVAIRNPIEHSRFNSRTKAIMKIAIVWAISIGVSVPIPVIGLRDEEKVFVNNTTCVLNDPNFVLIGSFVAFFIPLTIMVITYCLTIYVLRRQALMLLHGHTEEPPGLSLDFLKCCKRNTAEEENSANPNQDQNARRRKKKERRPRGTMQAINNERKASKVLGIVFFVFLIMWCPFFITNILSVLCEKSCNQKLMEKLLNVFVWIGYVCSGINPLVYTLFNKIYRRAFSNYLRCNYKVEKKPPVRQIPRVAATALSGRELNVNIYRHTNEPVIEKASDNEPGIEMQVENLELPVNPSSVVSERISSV
procedure-details: Binding affinity to recombinant 5-HT2C receptor (unknown origin) after 1.5 hrs by radioligand displacement assay
Please express pKi as -log10 of the molar concentration.

Qu. Indicate the recorded pKi value for this molecule: O=C(CCCCCN1CCN(c2ccccc2O)CC1)n1c2ccccc2c2ccccc21
Ans. 5.86

Qu. Indicate the recorded pKi value for this molecule: O=C(CCCCN1CCN(c2ccccc2O)CC1)n1c2ccccc2c2ccccc21
Ans. 5.82

Qu. Indicate the recorded pKi value for this molecule: COc1ccccc1N1CCN(CCCCCC(=O)n2c3ccccc3c3ccccc32)CC1.Cl
Ans. 6.23

Qu. Indicate the recorded pKi value for this molecule: COc1ccccc1N1CCN(CCCCC(=O)n2c3ccccc3c3ccccc32)CC1
Ans. 5.93
